tested on: Key Broadleaf Weed and Crop Species; assay: Post-emergent Test II herbicidal activity (Table 15); format: in vivo; conditions: Brassica napus, post-emergence, 336 h, oilseed rape, canola (Brassica napus), 70 g ai/ha, 14 d, read-out: Visual Growth Reduction (%) 14 Days After Application, BRSNN
Would you kindly list pest or weed control at 70 g/ha for each of these compounds?

1. COC(=O)c1nc(-c2ccc3cn[nH]c3c2)cc(N)c1Cl
0 to 29%
2. COC(=O)c1nc(-c2ccc3sccc3c2)cc(N)c1Cl
0 to 29%
3. COC(=O)c1nc(-c2cc3ccoc3cc2F)nc(N)c1OC
0 to 29%

Dear reader, for each entry below, please note its pest or weed control at 70 g/ha.
1. COC(=O)c1nc(-c2ccc3ccn(C)c3c2)c(F)c(N)c1Cl
2. COC(=O)c1nc(-c2ccc3scnc3c2)c(F)c(N)c1Cl

Found:
0 to 29%
95 to 100%

* * *

system: Key Grass and Sedge Weeds as well as Grass Crops; test: Post-emergent Test II herbicidal activity (Table 16); assay type: in vivo; settings: Echinochloa crus-galli, post-emergence, 336 h, barnyardgrass (Echinochloa crus-galli), 35 g ai/ha, 14 days after application, read-out: Visual Growth Reduction (%) 14 Days After Application ECHCG
observed-property: pest or weed control at 35 g/ha

Solved entries:
1. COc1c(N)nc(-c2ccc3sccc3c2)nc1C(=O)O [Compound 3.09]
85 to 94%
2. COC(=O)c1nc(-c2ccc3c(N(C)C)noc3c2)c(F)c(N)c1Cl [Compound 8.01]
0 to 29%
3. COC(=O)c1nc(-c2ccc3ccsc3c2)c(F)c(N)c1Cl [Compound 3.12]
85 to 94%
4. COC(=O)c1nc(-c2cccc3ccsc23)cc(N)c1Cl [Compound 3.27]
0 to 29%

Lookup: I'd like to know its pest or weed control at 35 g/ha. The compound in question is COC(=O)c1nc(-c2cccc3sccc23)c(F)c(N)c1Cl [Compound 3.23]
Found: 0 to 29%

* * *

system: Wheat and Barley and test plant species; assay: Post-emergent Test III, herbicidal activity in wheat and barley (Table 17; visual injury, GR20/GR50/GR80/GR90); type: in vivo; settings: GALAP; 70 g ai/ha; post-emergent; 21 d
observed-property: Visual Growth Reduction (%) 21 Days After Application, GALAP

1) Nc1c(F)c(-c2ccc3cc[nH]c3c2F)nc(C(=O)O)c1Cl
A (95-100)
2) COC(=O)c1nc(-c2ccc3cc[nH]c3c2F)c(F)c(N)c1Cl
A (95-100)
3) COC(=O)c1nc(-c2ccc3cc[nH]c3c2F)cc(N)c1Cl
A (95-100)

* * *

tested on: Key Grass and Sedge Weeds as well as Grass Crops; assay: Post-emergent Test II herbicidal activity (Table 16); assay type: in vivo; settings: Zea mays, post-emergence, 336 h, maize, corn (Zea mays), 35 g ai/ha, 14 d, read-out: Visual Growth Reduction (%) 14 Days After Application, ZEAMX
Would you kindly list pest or weed control at 35 g/ha for each of these molecules?

1. COC(=O)c1nc(-c2ccc3cc[nH]c3c2F)nc(N)c1Cl [Compound 1.31]
0 to 29%
2. COC(=O)c1nc(-c2ccc(Cl)c3[nH]ccc23)nc(N)c1OC [Compound 1.45]
0 to 29%
3. COC(=O)c1nc(-c2cc3[nH]ccc3cc2F)c(F)c(N)c1Cl [Compound 1.13]
0 to 29%
4. C=Cc1c(C(=O)O)nc(-c2ccc3cc[nH]c3c2F)c(F)c1N [Compound 1.19]
60 to 74%

We now examine a further molecule.
Lookup: I'd like to know its pest or weed control at 35 g/ha. The molecule in question is COC(=O)c1nc(-c2ccc(Cl)c3occc23)nc(N)c1OC [Compound 2.21]
Found: 0 to 29%

* * *

Would you kindly list pest or weed control at 70 g/ha for each of these molecules?
test system: Key Grass and Sedge Weeds as well as Grass Crops; experiment: Post-emergent Test II herbicidal activity (Table 16); assay type: in vivo; conditions: Triticum aestivum, post-emergence, 336 h, wheat, spring (Triticum aestivum), 70 g ai/ha, 14 d, read-out: Visual Growth Reduction (%) 14 Days After Application, TRZAS

Solved entries:
1. COC(=O)c1nc(-c2ccc3ccoc3c2F)nc(N)c1OC
45 to 59%
2. Cc1c(-c2ccc3cc[nH]c3c2)nc(C(=O)O)c(Cl)c1N
0 to 29%
3. COC(=O)c1nc(-c2ccc3cc[nH]c3c2F)cc(N)c1Cl
0 to 29%
4. COC(=O)c1nc(-c2ccc3[nH]ccc3c2)c(F)c(N)c1Cl
0 to 29%
5. COC(=O)c1nc(-c2ccc3occc3c2)nc(N)c1OC
0 to 29%
6. COc1c(N)nc(-c2ccc3cc[nH]c3c2)nc1C(=O)O
0 to 29%
7. Cn1ccc2cc(-c3nc(C(=O)O)c(Cl)c(N)c3F)ccc21
0 to 29%
8. Nc1c(Cl)c(C(=O)O)nc(-c2ccc3sccc3c2)c1Cl
0 to 29%
9. COC(=O)c1nc(-c2ccc3cc[nH]c3c2F)nc(N)c1OC
0 to 29%
10. Nc1c(F)c(-c2ccc(Cl)c3occc23)nc(C(=O)O)c1Cl
0 to 29%

Dear reader, for each entry below, please note its pest or weed control at 70 g/ha.
1. COC(=O)c1nc(-c2ccc3cc[nH]c3c2)cc(N)c1Cl
2. COc1c(N)nc(-c2ccc3cc[nH]c3c2F)nc1C(=O)O

Found:
["0 to 29%", "30 to 44%"]

* * *

Would you kindly list pest or weed control at 70 g/ha for each of these compounds?
tested on: Key Broadleaf Weed and Crop Species; experiment: Post-emergent Test II herbicidal activity (Table 15); type: in vivo; conditions: Abutilon theophrasti, post-emergence, 336 h, velvetleaf (Abutilon theophrasti), 70 g ai/ha, 14 d, read-out: Visual Growth Reduction (%) 14 Days After Application, ABUTH

1) Nc1c(F)c(-c2ccc(Cl)c3occc23)nc(C(=O)O)c1Cl
0 to 29%
2) Nc1c(F)c(-c2ccc3scnc3c2)nc(C(=O)O)c1Cl
85 to 94%
3) COC(=O)c1nc(-c2ccc3cn[nH]c3c2)cc(N)c1Cl
0 to 29%
4) COC(=O)c1nc(-c2cc3ccoc3cc2F)nc(N)c1OC
0 to 29%

Dear reader, for each entry below, please note its pest or weed control at 70 g/ha.
1. COC(=O)c1nc(-c2ccc3occc3c2)cc(N)c1Cl
2. COC(=O)c1nc(-c2cc3sccc3cc2F)cc(N)c1Cl

Found:
1: 95 to 100%; 2: 45 to 59%

* * *

Would you kindly list pest or weed control at 140 g/ha for each of these compounds?
Test system: Key Broadleaf Weed and Crop Species
Assay: Post-emergent Test II herbicidal activity (Table 15)
Type: in vivo
Conditions: Brassica napus, post-emergence, 336 h, oilseed rape, canola (Brassica napus), 140 g ai/ha, 14 d, read-out: Visual Growth Reduction (%) 14 Days After Application, BRSNN
From the text: Post-emergent Test II: Seeds or nutlets of the desired test plant species were planted in Sun Gro Metro-Mix® 360 planting mixture, which typically has a pH of 6.0 to 6.8 and an organic matter content of about 30 percent, in plastic pots with a surface area of 64 square centimeters. When required to ensure good germination and healthy plants, a fungicide treatment and/or other chemical or physical treatment was applied. […]

Dear reader, for each entry below, please note its pest or weed control at 140 g/ha.
1. COC(=O)c1nc(-c2ccc(Cl)c3cc[nH]c23)c(F)c(N)c1Cl
2. COC(=O)c1nc(-c2ccc3cc[nH]c3c2)c(F)c(N)c1Cl
3. COC(=O)c1nc(-c2ccc3ccsc3c2)cc(N)c1Cl

Found:
1. 0 to 29%
2. 85 to 94%
3. 45 to 59%

* * *

test system: Wheat and Barley and test plant species; experiment: Post-emergent Test III, herbicidal activity in wheat and barley (Table 17; visual injury, GR20/GR50/GR80/GR90); format: in vivo; settings: VIOTR; 17.5 g ai/ha; post-emergent; 21 d
observed-property: Visual Growth Reduction (%) 21 Days After Application, VIOTR

1. Nc1c(F)c(-c2ccc3cc[nH]c3c2F)nc(C(=O)O)c1Cl [Compound 1.16]
E (45-59)
2. COC(=O)c1nc(-c2ccc3cc[nH]c3c2F)c(F)c(N)c1Cl [Compound 1.15]
E (45-59)
3. COC(=O)c1nc(-c2ccc(Cl)c3ccoc23)c(F)c(N)c1Cl [Compound 2.24]
E (45-59)

* * *

Would you kindly list pest or weed control at 35 g/ha for each of these compounds?
Tested on: Key Broadleaf Weed and Crop Species
Assay: Post-emergent Test II herbicidal activity (Table 15)
Type: in vivo
Details: Euphorbia heterophylla, post-emergence, 336 h, wild poinsettia (Euphorbia heterophylla), 35 g ai/ha, 14 d, read-out: Visual Growth Reduction (%) 14 Days After Application, EPHHL
From the text: Post-emergent Test II: Seeds or nutlets of the desired test plant species were planted in Sun Gro Metro-Mix® 360 planting mixture, which typically has a pH of 6.0 to 6.8 and an organic matter content of about 30 percent, in plastic pots with a surface area of 64 square centimeters. When required to ensure good germination and healthy plants, a fungicide treatment and/or other chemical or physical treatment was applied. […]

Solved entries:
1) COC(=O)c1nc(-c2ccc3cc[nH]c3c2F)c(F)c(N)c1OC
95 to 100%
2) C=Cc1c(N)nc(-c2ccc3cc[nH]c3c2F)nc1C(=O)O
85 to 94%
3) Nc1c(F)c(-c2ccc(Cl)c3occc23)nc(C(=O)O)c1Cl
0 to 29%
4) COC(=O)c1nc(-c2ccc3[nH]ccc3c2)c(F)c(N)c1Cl
45 to 59%

Lookup: I'd like to know its pest or weed control at 35 g/ha. The compound in question is COC(=O)c1nc(-c2cc3occc3cc2F)cc(N)c1Cl
Found: 95 to 100%
